The measured values listed here are drawn from PubChem BioAssay (NCI).

- Tested on: SK-OV-3 ovarian
- testSummary: NCI-60 one-dose screen, 48 h (100 = growth as untreated, 0 = no growth, -100 = all killed)
- testConditions: 10 µM unless noted
This is part of a sample that, as a whole, favours compounds with a hit. Of some 83,000 tested, about 20% had one in any assay.
measureName: growth (%)
Express your answer in %, writing the number without its unit.

Past entries and their recorded results:
1. COc1ccc(CN2C(=O)/C(=C\C(=O)c3ccc(OCCN4CCCCC4)cc3)c3ccccc32)cc1 ... 107
2. COc1cc(-c2nn(-c3ccc(NC(=O)c4ccc(Cl)c(C(F)(F)F)c4)cc3)cc2-c2ccncc2)ccc1Cl ... 60.5
3. CCCCS(=O)(=O)c1cc(Nc2ccc(O)c3c2C(=O)c2ccccc2C3=O)ccc1C ... 87.8
4. O=c1oc2ccc3ccccc3c2cc1-c1ccnc2[nH]c(=S)[nH]c(=O)c12 ... 93.1
5. O=C(O)/C(Br)=C/c1c[nH]c2ccc(Br)cc12 ... 171
6. CCC(CCCN1C(=O)c2ccccc2C1=O)Nc1cc(OC)cc2cccnc12 (configuration not stated) ... 107
7. OCC(O)C(O)CC1SCCS1 (configuration not stated) ... 103
8. CC[C@@H](C)/C=C(C)/C=C/C(=O)c1c(O)c(-c2ccc(OC(=O)[C@@]34CC[C@@](C)(C(=O)O3)C4(C)C)cc2)cn(O)c1=O ... 28.3

Query: What does the data say about its growth? Entry: CC1=NN(c2cccc(Cl)c2)C(=O)/C1=C\c1cn(-c2nc(N3CCOCC3)nc(N3CCOCC3)n2)c2ccccc12
Response: 109

Query: Then BrCCCOc1ccc(Oc2ccc(OCCCBr)cc2)cc1 ?
Response: 123

Query: CCN(CC)CCOC(=O)c1cccnc1 ?
Response: 96.1

Query: Same thing, different compound: O=C(/C=C\c1ccccc1Cl)c1ccccc1
Response: 107

Query: Also CCCC[N+](C)(N)CCCC ?
Response: 102

Query: # iterate: Cc1ccc(OCCn2ccc(=O)n(CCOc3ccc(Cl)cc3C(=O)c3cc(C)cc(C)c3)c2=O)cc1
Response: 59.8

Query: Field entry: N=C(N)N=Nc1ccc(NN=C(N)N)c2ccccc12
Response: 88.1

Query: Then CC1(C)NC(=S)NC1=O ?
Response: 98.6

Query: Also CCOC(=O)c1c2c(cn1Cc1ccccc1)-c1oncc1CC2 , if possible.
Response: 109
